- measuredOn: S1P1 receptor (Homo sapiens, UniProt P21453)
- Construct: membrane preparation
- Sequence (P21453 whole entry): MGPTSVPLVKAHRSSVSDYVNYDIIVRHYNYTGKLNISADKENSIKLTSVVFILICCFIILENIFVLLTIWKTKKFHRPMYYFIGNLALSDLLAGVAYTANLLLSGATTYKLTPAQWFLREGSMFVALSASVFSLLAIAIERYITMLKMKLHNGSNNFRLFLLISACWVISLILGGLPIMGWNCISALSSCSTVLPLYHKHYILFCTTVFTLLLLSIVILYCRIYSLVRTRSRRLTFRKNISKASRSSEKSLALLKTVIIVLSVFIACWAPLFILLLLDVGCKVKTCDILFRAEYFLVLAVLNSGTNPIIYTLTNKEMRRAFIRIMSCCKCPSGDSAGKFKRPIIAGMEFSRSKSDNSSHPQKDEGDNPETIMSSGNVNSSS
- testName: 35S-GTPγS binding assay using membrane preparation of CHO cell stably expressing S1P1 receptor
- measurementParameters: agonist activity
pEC50: −log10 of the molar value.
metricName: pEC50

Please list pEC50 recorded for the compound Cc1cc(-c2nc(-c3ccc(CNCCC(=O)O)cc3)no2)ccc1-c1ccccc1C#N.Cl [Example 78]
9.59

Name the recorded pEC50 of the item O=C(O)CCNCc1ccc(-c2noc(-c3ccc(/C=C/C(F)(F)F)cc3)n2)cc1 [Example 103] in your answer.
8.41

Given Cc1cc(-c2nc(-c3ccc(CNCCC(=O)O)cc3)no2)ccc1-c1ccccc1Cl [Example 111] , respond with its pEC50.
9.77

Give a short answer stating reported pEC50 for Cc1cc(-c2nc(-c3ccc(CN[C@@H]4CC[C@@H](C(=O)O)C4)cc3)no2)ccc1-c1ccccc1 [Example 142] .
8.17

P = O=C(O)[C@@H]1C[C@H](O)[C@H](NCc2ccc(OCc3cc(-c4ccccc4)c(C(F)(F)F)s3)cc2)C1 [Example 16]
Q = Cc1cc(-c2nc(-c3ccc(CNCCC(=O)O)cc3)no2)ccc1-c1cccs1 [Example 112]
R = Cc1cc(-c2nc(-c3ccc(CNCCC(=O)O)cc3)no2)ccc1C1CCCCC1 [Example 92]
Please give the order of these compounds when sorted by pEC50, largest value leading. Sort and list the labels as requested.
R, Q, P
(R: 9.70, Q: 9.47, P: 7.03)

A = Cl.N#Cc1ccccc1-c1ccc(-c2nc(-c3ccc(CNCCC(=O)O)cc3)no2)cc1C(F)(F)F [Example 93]
B = O=C(O)CCNCc1ccc(-c2noc(-c3ccc(-c4ccccc4)cc3)n2)cc1 [Example 48]
Of A and B , which one carries the higher reported pEC50? Provide the label of your selected option as the answer.
A

a = Cl.O=C(O)CCNCc1ccc(-c2noc(C3CCC(c4ccccc4)CC3)n2)cc1 (stereo not drawn) [Example 61]
b = O=C(O)[C@H]1CC[C@@H](NCc2ccc(OCc3cc(-c4ccccc4)c(C(F)(F)F)s3)cc2)C1 [Example 18]
c = O=C(O)CCNCc1ccc(-c2noc(-c3ccc(-c4cccc(F)c4)cc3)n2)cc1 [Example 68]
d = Cc1cc(-c2nc(-c3ccc(CNCCC(=O)O)cc3)no2)ccc1-c1ccc(C(F)(F)F)cc1 [Example 77]
e = Cc1cc(CNCCC(=O)O)ccc1-c1noc(-c2ccc(-c3ccccc3C#N)c(C)c2)n1 [Example 145]
I would appreciate it if you could sort these 5 compounds by pEC50, starting from the smallest number. # respond with the labels, arranged in the requested order
b, d, c, a, e
(b: 6.60, d: 7.89, c: 8.26, a: 8.82, e: 9.70)

P = O=C(O)CCNCc1ccc(OCc2cc(-c3ccccc3)c(C(F)(F)F)s2)c(F)c1 [Example 152]
Q = O=C(O)C(CO)NCc1ccc(OCc2cc(-c3ccccc3)c(C(F)(F)F)s2)cc1 (stereo not drawn) [Example 27]
Larger number for pEC50: P , or Q ? When you have decided, please share the label of that item.
P

1 = O=C(O)CCNCc1ccc(-c2noc(-c3ccc(-c4ccccc4OC(F)(F)F)c(C(F)(F)F)c3)n2)cc1 [Example 100]
2 = O=C(O)CCNCc1ccc(-c2noc(-c3ccc(-c4ccccc4F)cc3)n2)cc1 [Example 67]
Could you please tell me which of these two has the higher pEC50: 1 or 2 ? Respond using the label that marks the chosen record.
2
(2: 9.10, 1: 8.77)

A = CCc1cc(-c2nc(-c3ccc(CNCCC(=O)O)cc3)no2)ccc1-c1ccccc1C#N [Example 102]
B = O=C(O)[C@H]1CC[C@@H](NCc2ccc(OCc3cc(-c4ccccc4)c(C(F)(F)F)s3)cc2)CC1 [Example 13]
C = Cc1cc(-c2nc(-c3ccc(CN[C@H]4C[C@H](C(=O)O)C4)cc3)no2)ccc1-c1ccccc1 [Example 134]
Arrange by pEC50, high to low. Present the labels in the sequence the task asks for.
A, C, B
(A: 9.39, C: 8.92, B: 6.63)

P = O=C(O)CCNCc1ccc(-c2noc(-c3cnc(OC4CCCC4)c(Cl)c3)n2)cc1 [Example 44]
Q = Cc1cc(-c2nc(-c3ccc(CNCCC(=O)O)cc3)no2)ccc1-c1cccc(F)c1 [Example 74]
Looking at recorded values for pEC50, does P or Q come in lower? Return value: the label identifying the chosen record.
P

P = O=C(O)CCNCc1ccc(OCc2cc(-c3ccccc3)c(C(F)(F)F)s2)cc1Cl [Example 149]
Q = Cc1cc(CNC2CC(C(=O)O)C2)ccc1-c1noc(-c2ccc(-c3ccccc3C#N)c(C)c2)n1 (stereo not drawn) [Example 147]
R = CC(C)Cc1ccc(-c2nc(-c3ccc(CNCCC(=O)O)s3)no2)cc1 [Example 128]
S = O=C(O)CCNCc1ccc(-c2noc(-c3ccc(-c4ncccc4C(F)(F)F)cc3)n2)cc1 [Example 41]
T = O=C(O)[C@@H]1CC[C@H](NCc2ccc3cnn(Cc4ccc(-c5ccccc5)cc4)c3c2)C1 [Example 35]
Rank ascending by pEC50. Record the ranking as a list of labels in the requested order.
T, S, R, P, Q

1 = Cc1cc(CN[C@H]2C[C@H](C(=O)O)C2)ccc1-c1noc(-c2ccc(CC(C)C)cc2)n1 [Example 146]
2 = Cc1cc(-c2nc(-c3ccc(CNCCC(=O)O)cc3)no2)ccc1-c1ccccc1C(C)C [Example 118]
Please compare: 1 and 2 . Report which one has the smaller pEC50 value. Give the chosen item's label as your response.
1
